system: LATS1; conditions: concentration: 1 μM,replicates: in singlicate; n = 1;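 further: KINOMEscan kinase panel screen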
Reported values of %Inh for individual entries

COMPOUND: Cc1occc1-c1nc(N)c(OC[C@@H](N)Cc2c[nH]c3ccccc23)cc1-c1cc2c(C)n[nH]c2cn1 [GSK1660450]
UNIT_STRING: %
%Inh: 100
--
COMPOUND: CN(C)CC(O)COc1ccc(Nc2nccc(-c3cnn4nc(N5CCOCC5)ccc34)n2)cc1 (centres unmarked) [GW767488]
UNIT_STRING: %
%Inh: 0
--
COMPOUND: Cc1n[nH]c2ccc(-c3cc(OC[C@@H](N)Cc4ccccc4)cnc3-c3ccoc3)cc12.O=C(O)C(F)(F)F.O=C(O)C(F)(F)F [GSK507358]
UNIT_STRING: %
%Inh: 48
--
COMPOUND: Cc1cc2cn[nH]c2cc1-c1cccc2c(N)c(C(N)=O)nnc12
UNIT_STRING: %
%Inh: 0
--
COMPOUND: Cc1cc(C(=O)Nc2ccc(Oc3ccc4nc(NC(=O)C5CC5)cn4n3)cc2)nn1-c1ccccc1
UNIT_STRING: %
%Inh: 26
--
COMPOUND: C[C@H]1Oc2cc(cnc2N)-c2c(nn(C)c2C#N)CN(C)C(=O)c2ccc(F)cc21
UNIT_STRING: %
%Inh: 19
--
COMPOUND: Cl.Cl.NC[C@H](CC1CCCCC1)NC(=O)c1cc(Br)c(-c2ccnc3[nH]ccc23)s1 [GSK1581427]
UNIT_STRING: %
%Inh: 93
--
COMPOUND: C=CC(=O)Nc1cc2c(Nc3ccc(F)c(Cl)c3)ncnc2cc1OCCCN1CCOCC1 [GW781483]
UNIT_STRING: %
%Inh: 0

----------
system: DYRK1B; conditions: concentration: 1 μM,replicates: in singlicate; n = 1
Record t whenever %Inh is at 40% or higher; record f when lower.

COMPOUND: O=C(NCCCN1CCOC1=O)c1cnc(NCc2cc(Cl)ccc2Cl)nc1NC1CCCC1
GROUP_LABEL: f

COMPOUND: CCn1c(-c2nonc2N)nc2c(C#CC(C)(C)O)nc(OCCN)cc21.Cl.Cl
GROUP_LABEL: f

COMPOUND: CN(C)CC(O)COc1ccc(Nc2nccc(-c3cnn4nc(N5CCOCC5)ccc34)n2)cc1 (centres unmarked)
GROUP_LABEL: t

COMPOUND: O=C(NCCNc1ccnc(NCc2ccc(F)cc2)n1)c1cc2ccccc2s1
GROUP_LABEL: f

COMPOUND: NC(=O)c1cc(-c2ccccc2)cc2c(C3CCNCC3)c[nH]c12
GROUP_LABEL: t

----------
test system: p38-gamma; construct: gene MAPK12; details: concentration: 1 μM,replicates: in singlicate; n = 1
Record class 1 whenever %Inh is at 40% or higher; record class 0 when lower.

COMPOUND: CN(C)CC(O)COc1ccc(Nc2nccc(-c3cnn4nc(N5CCOCC5)ccc34)n2)cc1 (centres unmarked) [GW767488]
ASSAY_SYSTEM: p38-gamma
GROUP_LABEL: class 1
--
COMPOUND: Cc1occc1-c1nc(N)c(OC[C@@H](N)Cc2c[nH]c3ccccc23)cc1-c1cc2c(C)n[nH]c2cn1 [GSK1660450]
ASSAY_SYSTEM: p38-gamma
GROUP_LABEL: class 0
--
COMPOUND: Cl.Cl.NC[C@H](CC1CCCCC1)NC(=O)c1cc(Br)c(-c2ccnc3[nH]ccc23)s1 [GSK1581427]
ASSAY_SYSTEM: p38-gamma
GROUP_LABEL: class 0
--
COMPOUND: Cc1cc(C(=O)Nc2ccc(Oc3ccc4nc(NC(=O)C5CC5)cn4n3)cc2)nn1-c1ccccc1
ASSAY_SYSTEM: p38-gamma
GROUP_LABEL: class 1
--
COMPOUND: NC(=O)c1cc(-c2ccccc2)cc2c(C3CCNCC3)c[nH]c12 [GSK301362]
ASSAY_SYSTEM: p38-gamma
GROUP_LABEL: class 0
--
COMPOUND: Cl.Oc1cc(-c2nc(-c3ccccc3)[nH]c2-c2ccncc2)ccc1Cl [SB-386023]
ASSAY_SYSTEM: p38-gamma
GROUP_LABEL: class 0
--
COMPOUND: Nc1nc(Nc2ccccc2)cc(-c2ccc3c(N)n[nH]c3c2)n1 [GSK2225749]
ASSAY_SYSTEM: p38-gamma
GROUP_LABEL: class 0
--
COMPOUND: CC(C)Nc1cc(-c2ccc3c(N)n[nH]c3c2)nc(N)n1 [GSK2221681]
ASSAY_SYSTEM: p38-gamma
GROUP_LABEL: class 0

----------
Reported values of %Inh for individual entries
test system: CDK4-cyclinD1; details: concentration: 1 μM,replicates: in singlicate; n = 1
ENDPOINT_NAME: %Inh (%)

MOLECULE: Nc1nc(Nc2ccccc2)cc(-c2ccc3c(N)n[nH]c3c2)n1
VAL: 0
//
MOLECULE: C[C@@H]1CCN(C(=O)CC#N)C[C@@H]1N(C)c1ncnc2[nH]ccc12
VAL: 0
//
MOLECULE: COc1ccc(C[C@@H](CN)NC(=O)c2cc(Br)c(-c3ccnc4[nH]ccc34)s2)cc1.Cl.Cl
VAL: 0
//
MOLECULE: CCN(CC)CCOc1ccc(Nc2ncc3cc(-c4c(Cl)cccc4Cl)c(=O)n(C)c3n2)cc1
VAL: 80
//
MOLECULE: CCn1c(-c2nonc2N)nc2c(C#CC(C)(C)O)nc(OCCN)cc21.Cl.Cl
VAL: 0
//
MOLECULE: Cc1n[nH]c2ccc(-c3cc(OC[C@@H](N)Cc4ccccc4)cnc3-c3ccoc3)cc12.O=C(O)C(F)(F)F.O=C(O)C(F)(F)F
VAL: 0
//
MOLECULE: CCN(CC)CCCCNc1ncc2cc(-c3c(Cl)cccc3Cl)c(NC(=O)NC(C)(C)C)nc2n1
VAL: 0
//
MOLECULE: Cc1cc(C(=O)Nc2ccc(Oc3ccc4nc(NC(=O)C5CC5)cn4n3)cc2)nn1-c1ccccc1
VAL: 13
//
MOLECULE: Cl.Cl.NC[C@H](CC1CCCCC1)NC(=O)c1cc(Br)c(-c2ccnc3[nH]ccc23)s1
VAL: 0
//
MOLECULE: O=C(NCCCN1CCOC1=O)c1cnc(NCc2cc(Cl)ccc2Cl)nc1NC1CCCC1
VAL: 4

----------
test system: SRPK1; settings: concentration: 1 μM,replicates: in singlicate; n = 1
ENDPOINT_NAME: %Inh (%)

MOLECULE: O=C(NCCNc1ccnc(NCc2ccc(F)cc2)n1)c1cc2ccccc2s1 [GSK1379944]
VAL: 13
--
MOLECULE: COc1ccc(C[C@@H](CN)NC(=O)c2cc(Br)c(-c3ccnc4[nH]ccc34)s2)cc1.Cl.Cl [GSK1389063]
VAL: 86
--
MOLECULE: Cc1ccc(-n2nc(C(C)(C)C)cc2NC(=O)Nc2ccc(OCCN3CCOCC3)c3ccccc23)cc1 [GW839464]
VAL: 64
--
MOLECULE: CN(C)CC(O)COc1ccc(Nc2nccc(-c3cnn4nc(N5CCOCC5)ccc34)n2)cc1 (stereo not drawn) [GW767488]
VAL: 76
--
MOLECULE: CNC(=O)c1ccccc1Sc1ccc2c(/C=C/c3ccccn3)n[nH]c2c1
VAL: 82
--
MOLECULE: CC(C)N1C(=O)Cc2cc(Nc3ncc(C(F)(F)F)c(NCc4cccc(S(C)(=O)=O)c4)n3)ccc21
VAL: 55
--
MOLECULE: C[C@@H]1CCN(C(=O)CC#N)C[C@@H]1N(C)c1ncnc2[nH]ccc12
VAL: 39
--
MOLECULE: C[C@H]1Oc2cc(cnc2N)-c2c(nn(C)c2C#N)CN(C)C(=O)c2ccc(F)cc21
VAL: 9
--
MOLECULE: Cc1cc2cn[nH]c2cc1-c1cccc2c(N)c(C(N)=O)nnc12
VAL: 49
--
MOLECULE: Cc1occc1-c1nc(N)c(OC[C@@H](N)Cc2c[nH]c3ccccc23)cc1-c1cc2c(C)n[nH]c2cn1 [GSK1660450]
VAL: 71
--
MOLECULE: Cc1cc(C(=O)Nc2ccc(Oc3ccc4nc(NC(=O)C5CC5)cn4n3)cc2)nn1-c1ccccc1
VAL: 8
--
MOLECULE: Cc1n[nH]c2ccc(-c3cc(OC[C@@H](N)Cc4ccccc4)cnc3-c3ccoc3)cc12.O=C(O)C(F)(F)F.O=C(O)C(F)(F)F [GSK507358]
VAL: 61

----------
Reported values of %Inh for individual entries
tested on: PKN2; conditions: concentration: 1 μM,replicates: in singlicate; n = 1
ENDPOINT_NAME: %Inh (%)

MOLECULE: Cc1ccc2c(-c3ccncc3)c(-c3ccc(F)cc3)nn2c1.Cl
ENDPOINT_NAME: %Inh
VAL: 8
//
MOLECULE: CNC(=O)c1ccccc1Sc1ccc2c(/C=C/c3ccccn3)n[nH]c2c1
ENDPOINT_NAME: %Inh
VAL: 0
//
MOLECULE: CCN(CC)CCCCNc1ncc2cc(-c3c(Cl)cccc3Cl)c(NC(=O)NC(C)(C)C)nc2n1
ENDPOINT_NAME: %Inh
VAL: 4
//
MOLECULE: C[C@@H](Oc1cc(-c2cnn(C3CCNCC3)c2)cnc1N)c1c(Cl)ccc(F)c1Cl
ENDPOINT_NAME: %Inh
VAL: 0
//
MOLECULE: Cc1cc(C(=O)Nc2ccc(Oc3ccc4nc(NC(=O)C5CC5)cn4n3)cc2)nn1-c1ccccc1
ENDPOINT_NAME: %Inh
VAL: 11
//
MOLECULE: Cl.Cl.NC[C@H](Cc1ccc(C(F)(F)F)cc1)NC(=O)c1cc(Br)c(-c2ccnc3[nH]ccc23)s1
ENDPOINT_NAME: %Inh
VAL: 79
//
MOLECULE: COc1ccc(C[C@@H](CN)NC(=O)c2cc(Br)c(-c3ccnc4[nH]ccc34)s2)cc1.Cl.Cl
ENDPOINT_NAME: %Inh
VAL: 90
//
MOLECULE: CN(C)CCOc1ccc(-c2cc(-c3c[nH]nc3-c3ccccn3)ccn2)cc1
ENDPOINT_NAME: %Inh
VAL: 3
